All values here come from patent US20240247080A1.

Biological target: GLP-1 receptor (human (printed as hGLP1R), UniProt P43220 24-463)
Assay: cell-based or functional assay
Starred links: 1 amine or outer side, 2 acyl side, 3 side chain; linkers in the order of their positions; H or OH if unused. Non-standard residues stand in square brackets, D forms with d. Groups on a side chain read outwards from the residue. No end group written: not given here. *: point of attachment. C20 diacid = O=C(O)CCCCCCCCCCCCCCCCCCC(=O)*; C18 diacid = O=C(O)CCCCCCCCCCCCCCCCC(=O)*; γGlu = O=C(O)[C@H](CCC(=O)[*:2])N[*:1]; εLys = N[C@@H](CCCCN[*:1])C(=O)[*:2]; glu = not defined here; AEEA = NCCOCCOCC(=O)O; Aib = CC(C)(N)C(=O)O
quantity_kind: EC50 hGLP1R 100% hP (CreLuc) (nM)

- binder: "YXEGTFTSDYSIXLEKQAQXAFVEWLIKGGPSEPASLRHYYNWLTRQRY (Aib at 2, 13, 20; K28 side chain carries C20DA-gGlu-gGlu-gGlu-gGlu-gGlu-gGlu-eLys; C-terminal amide) [Compound 233]"
  test_value: 1.7
- binder: "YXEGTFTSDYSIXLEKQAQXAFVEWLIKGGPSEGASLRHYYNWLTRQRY (Aib at 2, 13, 20; NMeQ (N-methyl-L-glutamine) at 47; K28 side chain carries C20DA-gGlu-gGlu-gGlu-gGlu-gGlu-gGlu-eLys; C-terminal amide) [Compound 222]"
  test_value: 4.43
- binder: "YXEGTFTSDYSIXLEKQAQXAFVEWLIKGGPSSGASLRHYYNWRTRQRY (Aib at 2, 13, 20; D-Arg at 44; K28 side chain carries C20DA-gGlu-gGlu-gGlu-gGlu-Glu-gGlu-eLys (so in the source); C-terminal amide) [Compound 190]"
  test_value: 1.09
- binder: "Y[Aib]EGTFTSDYSI[Aib]LEK(Ac)QAQ[Aib]AFVEWLIK([εLys-glu-γGlu-γGlu-γGlu-γGlu-γGlu-C20 diacid])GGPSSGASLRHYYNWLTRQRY-NH2 (reading uncertain; also: TFA salt) [Compound 192]"
  test_value: 2.01
- binder: "YXEGTFTSDYSIXLEKQAQXAFVEWLIKGGPSEGQSLRHYYNWLTRQRY (Aib at 2, 13, 20; K28 side chain carries C20DA-gGlu-gGlu-gGlu-gGlu-gGlu-gGlu-eLys; C-terminal amide) [Compound 227]"
  test_value: 3.07
- binder: "YXEGTFTSDYSIXLEKQAQXAFVEWLIKGGPSSGASLRHYYNWLTRXRY (Aib at 2, 13, 20; bHGln (beta-homo-L-glutamine) at 47; K28 side chain carries C20DA-gGlu-gGlu-gGlu-gGlu-gGlu-gGlu-eLys; C-terminal amide) [Compound 208]"
  test_value: 1.51
- binder: "Y[Aib]EGTFTSDYSI[Aib]LEKQAQ[Aib]AFVEWLIKGGPEEPASLRHYYNWLTRQRY-NH2 (not fully specified (residue 28); also: TFA salt) [Compound 206]"
  test_value: 17.2
- binder: "Y[Aib]EGTFTSDYSI[Aib]LEKQAQ[Aib]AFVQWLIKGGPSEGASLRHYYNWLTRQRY-NH2 (not fully specified (residue 28); also: TFA salt) [Compound 243]"
  test_value: 5.96
- binder: "Y[Aib]EGTFTSDYSI[Aib]LEKQAQ[Aib]AFVQWLIK([AEEA-AEEA-γGlu-γGlu-γGlu-γGlu-C20 diacid])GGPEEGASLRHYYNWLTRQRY-NH2 (also: TFA salt) [Compound 193]"
  test_value: 20.8
- binder: "Y[Aib]EGTFTSDYSI[Aib]LEKQAQ[Aib]AFVEWLIK([AEEA-AEEA-γGlu-γGlu-γGlu-C18 diacid])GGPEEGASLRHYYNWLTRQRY-NH2 (also: TFA salt) [Compound 248]"
  test_value: 8
- binder: "Y[Aib]EGTFTSDYSI[Aib]LEKQAQ[Aib]AFIEWLIKGGPSEGASLRHYYNWLTRQRY-NH2 (not fully specified (residue 28); also: TFA salt) [Compound 258]"
  test_value: 2.52
- binder: "Y[Aib]EGTFTSDYSI[Aib]LEKQAQ[Aib]AFVQWLIK([AEEA-AEEA-Glu-Glu-Glu-Glu-C20 diacid])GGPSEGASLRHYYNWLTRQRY-NH2 (also: TFA salt) [Compound 239]"
  test_value: 4.76
- binder: "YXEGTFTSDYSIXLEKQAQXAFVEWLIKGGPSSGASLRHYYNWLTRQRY (Aib at 2, 13, 20; K28 side chain carries C20DA-gGlu-gGlu-gGlu-gGlu-gGlu-OEG-OEG; C-terminal amide) [Compound 229]"
  test_value: 3.31
- binder: "Y[Aib]EGTFTSDYSI[Aib]LEKQAE[Aib]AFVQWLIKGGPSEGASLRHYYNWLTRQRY-NH2 (not fully specified (residue 28); also: TFA salt) [Compound 174]"
  test_value: 7.71
- binder: "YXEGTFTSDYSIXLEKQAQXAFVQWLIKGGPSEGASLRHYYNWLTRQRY (Aib at 2, 13, 20; K28 side chain carries C18DA-E-E-E-E-E-E-eLys (SEQ ID NO: 643); C-terminal amide) [Compound 249]"
  test_value: 1.78
- binder: "YXEGTFTSDYSIXLEKQAQXAFVEWLIKGGPSSGASLRHYYNLLTRQRY (Aib at 2, 13, 20; K28 side chain carries C20DA-gGlu-gGlu-gGlu-gGlu-gGlu-gGlu-eLys; C-terminal amide) [Compound 195]"
  test_value: 1.9
- binder: "Y[Aib]EGTFTSDYSI[Aib]LEKQAQ[Aib]AFVQWLIK([εLys-γGlu-γGlu-γGlu-γGlu-γGlu-C20 diacid])GGPSEYASLRHYYNWLTRQRY-NH2 (also: TFA salt) [Compound 189]"
  test_value: 10.2
- binder: "Y[Aib]EGTFTSDYSI[Aib]LEKQAQ[Aib]AFVEWLIK([AEEA-AEEA-γGlu-γGlu-γGlu-γGlu-C18 diacid])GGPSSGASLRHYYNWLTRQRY-NH2 (also: TFA salt) [Compound 254]"
  test_value: 1.69
